system: HeLa; assay: Cytostatic activity against human HeLa cells after 72 hrs by FCR-based colorimetric method; type: functional; conditions: read-out: ED50 (the source's name)
Measured EC50, listed per entry for reference.
# output: bare number, implied unit µg/mL

Would you mind telling me what EC50 value was observed for CCOC(=O)c1cc(CBr)n([C@@H]2O[C@H](COC(C)=O)[C@@H](OC(C)=O)[C@H](OC(C)=O)[C@H]2OC(C)=O)n1 ? 6

Field entry: CCOC(=O)c1cc(CBr)nn1[C@H]1O[C@H](COC(C)=O)[C@@H](OC(C)=O)[C@H](OC(C)=O)[C@H]1OC(C)=O 5

Note, next up: CC(=O)OC[C@H]1O[C@@H](n2nc(CBr)cc2C(N)=O)[C@H](OC(C)=O)[C@@H]1OC(C)=O 2

====

tested on: HeLa; assay: Cytostatic activity against human HeLa cells after 72 hrs by FCR-based colorimetric method; type: functional; settings: read-out: ED50 (the source's name)
# EC50 per record follows

For the record CCOC(=O)c1cc(CN(CCCl)CCCl)nn1[C@@H]1OC[C@@H](OC(C)=O)[C@@H](OC(C)=O)[C@H]1OC(C)=O , what value of EC50 is listed for HeLa? > 100 µg/mL

Now the compound CCOC(=O)c1cc(CN(CCCl)CCCl)nn1[C@@H]1O[C@H](COC(C)=O)[C@@H](OC(C)=O)[C@H]1OC(C)=O > 100 µg/mL

Then there is this compound:
Return EC50 measured with HeLa given this compound: Br.NCc1cc(C(N)=O)n([C@@H]2OC[C@@H](O)[C@@H](O)[C@H]2O)n1 > 100 µg/mL

====

test system: HeLa; test: Cytostatic activity against human HeLa cells after 72 hrs by FCR-based colorimetric method; format: functional; conditions: read-out: ED50 (the source's name)
quantity: EC50

Dear colleague, I am looking for the recorded EC50 of the following molecule: CCOC(=O)c1cc(CN(CCCl)CCCl)nn1[C@@H]1O[C@H](COC(C)=O)[C@@H](OC(C)=O)[C@H](OC(C)=O)[C@H]1OC(C)=O > 100 µg/mL

***
Can you look up the measured EC50 of Br.NCc1cc(C(N)=O)n([C@@H]2O[C@H](CO)[C@@H](O)[C@H]2O)n1 for me? > 100 µg/mL

Then CC(=O)OC[C@H]1O[C@@H](n2nc(CN(CCCl)CCCl)cc2C(N)=O)[C@H](OC(C)=O)[C@@H](OC(C)=O)[C@@H]1OC(C)=O ? > 100 µg/mL
